tested on: LG0703-F948-PDC spheroids with HUVEC/MSC, viability; assay: Anticancer human tumor LG0703-F948-PDC patient-derived lung adenocarcinoma cell line growth inhibition [IpAb]; conditions: curve of compound;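 note: spheroids exposed to compounds for seven days before readout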
measured.endpoint: IC50

Incoming: Please look up its IC50: `CC(=O)c1c(C)c2cnc(Nc3ccc(N4CCNCC4)cn3)nc2n(C2CCCC2)c1=O`
Outgoing: > 0.3 µM

Incoming: Quick one: IC50 for C=CC(=O)N1CCN(c2nc(=O)n(-c3c(C)ccnc3C(C)C)c3nc(-c4c(O)cccc4F)c(F)cc23)C(C)C1 (stereo not drawn) ?
Outgoing: > 10 µM

Incoming: Could you share which IC50 value was measured for Cn1nccc1Nc1nccc(-c2ccn(C(CO)c3ccc(Cl)c(F)c3)c(=O)c2)n1 (stereo not drawn) ?
Outgoing: > 10 µM
